system: SK-MEL-2 melanoma; experiment: NCI tumour cell line growth inhibition, 48 h
Assign TGI to each entry below.

Problem: Hi! What's the reported TGI for CCOC(=O)/C(C#N)=C(/NNc1ccccc1)c1ccncc1C(=O)O on SK-MEL-2 melanoma?
Result: > 100 µM

Problem: Hi! What's the reported TGI for COc1nc(OC)nc(-c2cccc(F)c2)n1 on SK-MEL-2 melanoma?
Result: 38.6 µM

Problem: Hi! What's the reported TGI for CC(=O)NNc1nc(C)c(C(=O)/C=C/c2ccc(/C=C/C(=O)c3sc(NNC(C)=O)nc3C)cc2)s1 on SK-MEL-2 melanoma?
Result: > 100 µM

Problem: Hi! What's the reported TGI for Cc1nn(C(=O)c2ccncc2)c2c1C(c1cccc([N+](=O)[O-])c1)SC(N)=N2 (centres undefined) on SK-MEL-2 melanoma?
Result: > 10 µM

Problem: Hi! What's the reported TGI for COc1cc(OC)cc(-n2c(N)c(-c3nc4ccccc4n3C)c3ccc([N+](=O)[O-])cc3c2=O)c1 on SK-MEL-2 melanoma?
Result: > 100 µM

Problem: Hi! What's the reported TGI for Cc1c2ccncc2c(C)c2c1c1cc(CO)ccc1n2C on SK-MEL-2 melanoma?
Result: 2.54 µM

Problem: Hi! What's the reported TGI for CC(=O)CC(C)(C)NC(=O)[C@@]1(O)CC[C@H]2[C@@H]3CCC4=CC(=O)CC[C@@H]4[C@H]3CC[C@@]21C on SK-MEL-2 melanoma?
Result: > 100 µM

Problem: Hi! What's the reported TGI for CN1Cc2c(nc(-c3ccc(Br)cc3)c[n+]2[O-])N(C)C1 on SK-MEL-2 melanoma?
Result: > 100 µM

Problem: Hi! What's the reported TGI for CCOC(=O)c1c(N2CCOCC2)[nH]c(=O)c(C(c2cccs2)c2c(O)c(C(=O)OCC)c(N3CCOCC3)[nH]c2=O)c1O on SK-MEL-2 melanoma?
Result: > 100 µM

###

tested on: SR leukemia; assay: NCI tumour cell line growth inhibition, 48 h; in the data active = GI50 below about 0.43 µM; inactive = the rest
Reply using exactly one outcome from true (1) = active, false (0) = inactive

Problem: Test call for this compound, please: NS(=O)(=O)c1cccc(-c2ccc3c(NC(=O)C4CC4)n[nH]c3c2)c1
Result: false (0)

Problem: Test call for this compound, please: C[C@H]1c2ccccc2CN1CCCOc1cc2c(cc1OCC1CC1)C1(CCCC1)C(N)=N2
Result: false (0)

Problem: Test call for this compound, please: Cc1cccc2c(Nc3ccc(NS(C)(=O)=O)cc3)c3ccc([N+](=O)[O-])cc3nc12
Result: true (1)

Problem: Test call for this compound, please: CCC[CH2][Sn]([CH2]CCC)([O]C(=O)/C=C/c1ccccc1F)[O]C(=O)/C=C/c1ccccc1F
Result: true (1)

Problem: Test call for this compound, please: C=CCCCOC1[C@H](OCc2ccccc2)C(OCc2ccccc2)C(OC)O[C@@H]1CNC(=O)c1cccc(I)c1 (some centres undefined)
Result: false (0)

Problem: Test call for this compound, please: O=C1CCC(N2C(=O)c3cccc(NCCCC4CCN(CCNC(=O)c5cc6c(o5)C(=O)c5ccccc5C6=O)CC4)c3C2=O)C(=O)N1 (centres undefined)
Result: true (1)

Problem: Test call for this compound, please: Brc1cccc(-c2cc(-c3ccc4nccnc4c3)[nH]n2)c1
Result: true (1)

Problem: Test call for this compound, please: COc1ccc2c(c1)/C(=C\c1c[nH]c3ccc(OC)cc13)C(=O)N2
Result: false (0)

Problem: Test call for this compound, please: CCN1C(=O)N(CC)C2C1NN=c1s/c(=C\c3ccc[nH]3)c(=O)n12 (centres undefined)
Result: true (1)

Problem: Test call for this compound, please: COc1cc(/C=C/[N+](=O)[O-])cc(OC)c1OC
Result: false (0)

Problem: Test call for this compound, please: Nc1ncccc1-c1nc2ccc(-c3ccccc3)nc2n1-c1ccc(C2(N)CCC2)cc1
Result: false (0)

Problem: Test call for this compound, please: COc1ccc(Oc2ccccc2NC(=O)CNC(=O)c2cccc3ccccc23)cc1
Result: true (1)

Problem: Test call for this compound, please: O=C1CSC(c2ccccc2O)N1c1nnc(Cn2ccnc2)o1 (centres undefined)
Result: false (0)

Problem: Test call for this compound, please: COc1ccc2c(c1)C(=O)c1c-2n(CCCN)c(=O)c2cc([N+](=O)[O-])ccc12
Result: true (1)

Problem: Test call for this compound, please: CCN(CC)CCCC(C)Nc1c(-c2ccccc2)cnc2cc(Cl)ccc12 (centres undefined)
Result: false (0)

Problem: Test call for this compound, please: CN(c1ccc(C#N)c(Cl)c1)C1CCC(NC(=O)c2ccc(N3CCN(C4CN(c5ccc6c(c5)C(=O)N(C5CCC(=O)NC5=O)C6=O)C4)CC3)cc2)CC1 (centres undefined)
Result: false (0)

Problem: Test call for this compound, please: COc1cc(OC)cc(-c2n/c(=C\c3c(O)[nH]c4ccc(Cl)cc34)cc3c2=Nc2ccccc2-3)c1
Result: false (0)

Problem: Test call for this compound, please: CCN(CC)C(=S)SSC(=S)N(CC)CC
Result: false (0)

Problem: Test call for this compound, please: Oc1c(Cl)cc(Cl)c2cccnc12
Result: false (0)
